Listed below: Kd values for each entry.
- target of assay: T1, human CD47-his (Sino Biological, CAT#12283-HCCH-50) (human, UniProt Q08722 19-139, limits assumed)
- T1 construct: Bought protein used as analyte in Biacore; also called 人CD47-his; human CD47-his antigen; not shown: His tag of the bought protein
- T1 sequence (Q08722 19-139 limits assumed): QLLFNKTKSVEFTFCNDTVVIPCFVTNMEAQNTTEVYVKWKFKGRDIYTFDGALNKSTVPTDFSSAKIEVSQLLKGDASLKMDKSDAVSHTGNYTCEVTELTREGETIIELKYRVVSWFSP
- protocol text: SPR (Biacore): antibody captured with human Fab capture kit on CM5 chip, human CD47-his flowed over
Unit nM implied. Number only.

[[record]]
binder = "hu055-8 (antibody, V domains shown) VH: QVQLVQSGAEVKKPGASVKVSCKASGYTFTSSYLHWVRQAPGQRLEWMGWIYPESGNTKYNERFKGRVTITRDTSASTAYMELSSLRSEDTAVYYCARRGDVFFAYWGQGTTVTVSS VL: DIVMTQSPDSLAVSLGERATINCKSSQSLLTSGKQKNYLTWYQQKPGQPPKLLIYWASTRESGVPERFSGSGSGTDFTLTISSLQAEDVAVYYCQNDYSYPLTFGQGTKLEIK"
recorded_measurement = 0.617

[[record]]
binder = "chimeric antibody ch-055 (antibody, V domains shown) VH: QVLLQQSGPELVQPGASVKISCKASGYSFTSSYLHWVKQRPGQGLDWIGWIYPESGNTKYNERFKGKATLTADTSSSTAYMQLSSLTSEDSAVYYCSRRGDVFFAYWGQGTTLTVSS VL: DIVMTQSPSYLTVTAGEKVTMSCKSSQSLLTSGKQKNYLTWYQQKPGQPPKLLIYWASTRESGVPERFRGSGSGTDFTLTISSVQAEDLAVYYCQNDYSYPLTFGAGTKLELN"
recorded_measurement = 0.167


Read the next record carefully.
Sample hu055-1 (antibody, V domains shown) VH: QVQLVQSGAEVKKPGASVKVSCKASGYTFTSSYLHWVRQAPGQRLEWMGWIYPESGNTKYNERFKGRVTITRDTSASTAYMELSSLRSEDTAVYYCARRGDVFFAYWGQGTTVTVSS VL: DIVMTQSPDSLAVSLGERATINCKSSQSLLTSGKQKNYLTWYQQKPGQPPKLLIYWASTRESGVPDRFSGSGSGTDFTLTISSLQAEDVAVYYCQNDYSYPLTFGQGTKLEIK ; Kd observed: 0.585
